// reported EC50 for each item listed
System: Daudi Cell Culture
Test: Compound primary screening in Daudi cell culture
Type: cell-based
Conditions: Homo sapiens, 168 h; Daudi cells, 1250 cells per well, reads on Day 7

Use the examples below as a reference point.
CC(C)NC(=S)Nc1ccc(-c2ncc(-c3ccc(NC(=O)NCc4ccc(O)cc4)cc3S(=O)(=O)NC(C)(C)C)s2)cc1	< 10 µM
CCNc1ccc(-c2cnc(-c3ccc(NC(=O)OC(C)C)cc3)s2)c(S(=O)(=O)NC(C)(C)C)c1	< 5 µM
CC(C)OC(=O)Nc1ccc(-c2ncc(-c3ccc(N4CCCC4=O)cc3S(=O)(=O)NC(C)(C)C)s2)cc1	< 5 µM
CC(=O)Nc1ccc(-c2cnc(-c3ccc(NC(=S)NC(C)C)cc3)s2)c(S(=O)(=O)NC(CO)CO)c1	> 10 µM
COC(=O)[C@H](Cc1ccccc1)NS(=O)(=O)c1cc(NC(C)=O)ccc1-c1cnc(-c2ccc(NC(=S)NC(C)C)cc2)s1 [Compound D1]	> 10 µM
COc1cc(-c2ncc(-c3ccc(N4CCCC4=O)cc3S(=O)(=O)NC(C)(C)C)s2)ccc1NC(=O)OC(C)C	< 10 µM

According to the records, this compound COc1cc(-c2ncc(-c3ccc(NC(=O)OCc4ccccc4)cc3S(=O)(=O)NC(C)(C)C)s2)ccc1NC(=O)OC(C)C displays EC50 of < 1 µM

According to the records, this compound CC(C)NC(=S)Nc1ccc(-c2ncc(-c3ccc(NC(=O)OCc4ccccc4)cc3S(=O)(=O)NC(C)(C)C)s2)cc1 displays EC50 of > 10 µM

According to the records, this compound COCCC(=O)NCc1ccc(-c2cnc(-c3ccc(NC(=O)OC(C)C)cc3)s2)c(S(=O)(=O)NC(C)(C)C)c1 displays EC50 of > 10 µM

According to the records, this compound Cn1ccnc1Nc1ccc(-c2cnc(-c3ccc(N)cc3)s2)c(S(N)(=O)=O)c1 displays EC50 of > 10 µM

According to the records, this compound CC(=O)Nc1ccc(-c2cnc(-c3cccc(NC(=O)OC(C)C)c3)s2)c(S(=O)(=O)NC(C)(C)C)c1 displays EC50 of < 10 µM

According to the records, this compound CC(=O)Nc1ccc(-c2cnc(-c3ccc(NC(=S)NC(C)C)cc3)s2)c(S(=O)(=O)NCC(C)(C)CO)c1 displays EC50 of > 10 µM

According to the records, this compound CC(=O)NCc1ccc(-c2cnc(-c3ccc(NC(=O)OC(C)C)cc3)s2)c(S(=O)(=O)NC(C)(C)C)c1 displays EC50 of < 10 µM

According to the records, this compound CC(C)OC(=O)Nc1ccc(-c2ncc(-c3ccc(NC(=O)OCc4cccnc4)cc3S(=O)(=O)NC(C)(C)C)s2)cc1 displays EC50 of < 1 µM

According to the records, this compound CC(C)NC(=S)Nc1ccc(-c2ncc(-c3ccc(Nc4nccn4C)cc3S(=O)(=O)NC(C)(C)C)s2)cc1 displays EC50 of > 10 µM

According to the records, this compound COCCOC(=O)Nc1ccc(-c2cnc(-c3ccc(NC(=O)OC(C)C)cc3)s2)c(S(=O)(=O)NC(C)(C)C)c1 displays EC50 of < 1 µM

According to the records, this compound CNC(=O)c1ccc(-c2cnc(-c3ccc(NC(=O)OC(C)C)cc3)s2)c(S(=O)(=O)NC(C)(C)C)c1 displays EC50 of < 5 µM

According to the records, this compound CC(C)NC(=S)Nc1ccc(-c2ncc(-c3ccc(NC(=O)NCc4nccs4)cc3S(=O)(=O)NC(C)(C)C)s2)cc1 displays EC50 of > 10 µM

According to the records, this compound CC(C)OC(=O)Nc1ccc(-c2ncc(-c3ccc(N4CC(C)OC4=O)cc3S(=O)(=O)NC(C)(C)C)s2)cc1 (stereo not drawn) displays EC50 of < 10 µM

According to the records, this compound CC(C)OC(=O)Nc1ccc(-c2ncc(-c3ccc(N4CC(Cc5ccccc5)OC4=O)cc3S(=O)(=O)NC(C)(C)C)s2)cc1 (stereo not drawn) displays EC50 of > 10 µM

According to the records, this compound CC(C)OC(=O)Nc1ccc(-c2ncc(-c3ccc(NCC(F)(F)F)cc3S(=O)(=O)NC(C)(C)C)s2)cc1 displays EC50 of < 5 µM

According to the records, this compound CC(=O)Nc1ccc(-c2cnc(-c3ccc(N)cc3S(=O)(=O)NC(C)(C)C)s2)c(S(=O)(=O)NC(C)(C)C)c1 displays EC50 of > 10 µM

According to the records, this compound CC(C)OC(=O)Nc1ccc(-c2ncc(-c3ccc(CNC(=O)C(C)C)cc3S(=O)(=O)NC(C)(C)C)s2)cc1 [Compound P2] displays EC50 of < 5 µM

According to the records, this compound CC(C)NC(=S)Nc1ccc(-c2ncc(-c3ccc(N(C)C(=O)NCc4ccccc4)cc3S(=O)(=O)NC(C)(C)C)s2)cc1 displays EC50 of < 1 µM

According to the records, this compound CC(C)OC(=O)Nc1ccc(-c2ncc(-c3ccc(N(C)S(C)(=O)=O)cc3S(=O)(=O)NC(C)(C)C)s2)cc1 displays EC50 of < 5 µM

According to the records, this compound CC(C)OC(=O)Nc1ccc(-c2ncc(-c3ccc(N4CCCOC4=O)cc3S(=O)(=O)NC(C)(C)C)s2)cc1 displays EC50 of < 5 µM

According to the records, this compound CC(C)OC(=O)Nc1ccc(-c2ncc(-c3ccc(NC(=O)NC(C)c4ccccc4)cc3S(=O)(=O)NC(C)(C)C)s2)cc1 (stereo not drawn) displays EC50 of < 1 µM
